The reported measurements were obtained from PubChem BioAssay (NCI).

Listed next: entries and their corresponding growth.
# System: SNB-75 CNS
# Procedure summary: NCI-60 one-dose screen, 48 h (100 = growth as untreated, 0 = no growth, -100 = all killed)
# Reported conditions: 10 µM unless noted
About 83,000 compounds went through this panel and 20% of them were active in at least one assay; those are over-represented in the sample as a whole.
Give just the numeric value; % need not be written.

Compound: COc1ccc(-c2ccc(-c3ccc(C(=N)N)nc3)s2)cc1Cl
growth, %: 80.5

Compound: CC1C(/C=N/NC(N)=S)C(C#N)(C#N)C1(C#N)C#N (configuration not stated)
growth, %: 92.7

Compound: NC(N)=NS(=O)(=O)c1ccc(NC2=C(I)C(=O)c3ncccc3C2=O)cc1
growth, %: 67.9

Compound: COc1ccc(/C=C/C(c2cc(OC)c(OC)c(OC)c2)n2cncn2)cc1 (configuration not stated)
growth, %: 51.3

Compound: COC(=O)CC[C@@H]1O[C@@H](c2ccc(F)cc2)[C@@H](O)[C@H]1O
growth, %: 90.1

# input growth lookup needed for `FC(F)(F)Oc1cccc(-c2cnc3ccc(-c4ccncc4)nn23)c1` , thanks.
# output 41.6

# input # iterate: `c1ccc2c(c1)CCCc1nnc3nc4ccccc4n3c1-2`
# output 45.4

# input # iterate: `CCSc1oc(C)nc1[P+](c1ccccc1)(c1ccccc1)c1ccccc1`
# output 35.1

# input # iterate: CC1=C(C(=O)Nc2ccccc2)C(c2ccc3c(c2)OCO3)NC(=S)N1 (configuration not stated)
# output 107
